B1: Transcription elongation factor A N-terminal and central domain-containing protein, residues 30 to 77; numbered along this chain, Q8N8B7 (parent)
chain: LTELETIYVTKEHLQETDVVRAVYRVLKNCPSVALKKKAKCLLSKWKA

variants of: B1; test: abundance fitness (aPCA) (normalised: wild type 0, dead -1); higher = more abundant; growth selection in yeast, the domain comes from the species named; conditions: Homo sapiens
Here the recorded abundance fitness is given for each entry.
Lab note: jot down the number only; don't add units.

mutation: W46P
abundance fitness: -0.765
--
mutation: E5P
abundance fitness: -0.663
--
mutation: D18G
abundance fitness: 0.354
--
mutation: R25A
abundance fitness: -0.326
--
mutation: V20T
abundance fitness: -0.414

Consider the additional variant presented here.
Consider V23I . Its measured abundance fitness is 0.189
